Overview of reported pKd across a group of compounds:
- Experimental target: L-AChBP (Lymnaea stagnalis, UniProt P58154)
- Construct: made in house; host or cells: stably transfected HEK293S-GnTI- cells
- Sequence (P58154 20-229): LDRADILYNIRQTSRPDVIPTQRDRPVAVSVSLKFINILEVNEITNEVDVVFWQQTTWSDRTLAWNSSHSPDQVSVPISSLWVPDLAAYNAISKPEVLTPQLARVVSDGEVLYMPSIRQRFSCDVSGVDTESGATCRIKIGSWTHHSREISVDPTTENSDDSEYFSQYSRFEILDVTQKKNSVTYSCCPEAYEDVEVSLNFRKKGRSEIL
- Assay summary: Scintillation proximity assay, competition against [3H]epibatidine binding to L-AChBP
- Procedure: Equilibrium dissociation constants were determined either from ratios (Kd/(koff/kon)) of rate constants determined using multiple kinetic means (kon, koff, koff/GAL) or directly from stopped-flow measurements (Kd/SFeq, Kd/SPAeq) (see Experimental Procedures). The procedures for stable expression and purification of A- and L-AChBPs are described in Appendix D. Rate constants for association (kon) and dissociation (koff) were determined by multiple kinetic means, largely as previously described. […]
pKd: −log10 of the molar value.
Reported endpoint: pKd

[[record]]
compound = "CC1=NCCC[C@]12CCCCC21OCCO1 [Spiroimine (+)-4 R]"
test_result = 4.92

[[record]]
compound = "CC1=NCCC[C@@]12CCCCC21OCCO1 [Spiroimine (−)-4 S]"
test_result = 5.47

[[record]]
compound = "CC1=NCCCC12CCCCC21OCCO1 (racemic) [Racemic (±)-4]"
test_result = 5.59


---

- Experimental target: A-AChBP (Aplysia californica, UniProt Q8WSF8)
- Sequence (Q8WSF8 entry or part of it): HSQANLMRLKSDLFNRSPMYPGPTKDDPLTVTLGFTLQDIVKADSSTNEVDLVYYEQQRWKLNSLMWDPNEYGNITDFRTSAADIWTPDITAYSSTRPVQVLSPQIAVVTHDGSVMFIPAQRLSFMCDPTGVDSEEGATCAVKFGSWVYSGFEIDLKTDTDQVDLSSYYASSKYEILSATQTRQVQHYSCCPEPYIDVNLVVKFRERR
- Assay summary: Stopped-flow Trp fluorescence kinetic and equilibrium binding to purified A-AChBP
- Cond: Kd/(koff/kon), A-AChBP, calculated from the rate constants
pKd: −log10 of the molar value.
Reported endpoint: pKd

[[record]]
molecule = "CC1=NCCCC12CCCCC21OCCO1 (racemic) [Racemic (±)-4]"
test_result = 5.54

[[record]]
molecule = "CC1=NCCC[C@@]12CCCCC21OCCO1 [Spiroimine (−)-4 S]"
test_result = 5.37

[[record]]
molecule = "CC1=NCCC[C@]12CCCCC21OCCO1 [Spiroimine (+)-4 R]"
test_result = 5.66


---

Overview of reported Kd across a group of compounds:
- Experimental target: A-AChBP (Aplysia californica, UniProt Q8WSF8)
- Assay summary: Stopped-flow Trp fluorescence kinetic and equilibrium binding to purified A-AChBP
- Cond: Kd/SFeq, A-AChBP, stopped-flow on pre-equilibrated complexes, single experiment in triplicate
- Procedure: Equilibrium dissociation constants were determined either from ratios (Kd/(koff/kon)) of rate constants determined using multiple kinetic means (kon, koff, koff/GAL) or directly from stopped-flow measurements (Kd/SFeq, Kd/SPAeq) (see Experimental Procedures). The procedures for stable expression and purification of A- and L-AChBPs are described in Appendix D. Rate constants for association (kon) and dissociation (koff) were determined by multiple kinetic means, largely as previously described. […]
Reported endpoint: Kd (µM)

[[record]]
compound = "CC1=NCCC[C@]12CCCCC21OCCO1 [Spiroimine (+)-4 R]"
test_result = 3.1

[[record]]
compound = "CC1=NCCCC12CCCCC21OCCO1 (racemic) [Racemic (±)-4]"
test_result = 4.2

[[record]]
compound = "CC1=NCCC[C@@]12CCCCC21OCCO1 [Spiroimine (−)-4 S]"
test_result = 5.4


---

Overview of reported pIC50 across a group of compounds:
- Experimental target: human neuronal α4β2 nAChR (Homo sapiens, UniProt P17787+P43681)
- Construct: cDNAs in pRc/CMV vector
- Sequence (P43681 29-627 limits assumed): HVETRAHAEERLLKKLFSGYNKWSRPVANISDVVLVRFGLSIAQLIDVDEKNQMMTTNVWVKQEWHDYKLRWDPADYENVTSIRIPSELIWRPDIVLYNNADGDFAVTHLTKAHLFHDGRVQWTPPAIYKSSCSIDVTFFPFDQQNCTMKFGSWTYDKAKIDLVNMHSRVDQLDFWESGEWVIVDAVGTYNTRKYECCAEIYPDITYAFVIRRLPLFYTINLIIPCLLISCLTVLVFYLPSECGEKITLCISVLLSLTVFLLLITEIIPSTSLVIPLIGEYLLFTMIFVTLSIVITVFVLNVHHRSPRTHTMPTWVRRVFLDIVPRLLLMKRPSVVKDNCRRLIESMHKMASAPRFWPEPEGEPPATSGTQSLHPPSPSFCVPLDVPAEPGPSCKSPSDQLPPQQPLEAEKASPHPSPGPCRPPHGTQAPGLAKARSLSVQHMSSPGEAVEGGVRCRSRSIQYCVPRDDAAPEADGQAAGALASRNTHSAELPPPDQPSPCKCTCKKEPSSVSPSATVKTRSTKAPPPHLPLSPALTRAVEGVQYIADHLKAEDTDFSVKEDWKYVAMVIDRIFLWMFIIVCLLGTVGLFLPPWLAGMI
- Sequence (P17787 26-502): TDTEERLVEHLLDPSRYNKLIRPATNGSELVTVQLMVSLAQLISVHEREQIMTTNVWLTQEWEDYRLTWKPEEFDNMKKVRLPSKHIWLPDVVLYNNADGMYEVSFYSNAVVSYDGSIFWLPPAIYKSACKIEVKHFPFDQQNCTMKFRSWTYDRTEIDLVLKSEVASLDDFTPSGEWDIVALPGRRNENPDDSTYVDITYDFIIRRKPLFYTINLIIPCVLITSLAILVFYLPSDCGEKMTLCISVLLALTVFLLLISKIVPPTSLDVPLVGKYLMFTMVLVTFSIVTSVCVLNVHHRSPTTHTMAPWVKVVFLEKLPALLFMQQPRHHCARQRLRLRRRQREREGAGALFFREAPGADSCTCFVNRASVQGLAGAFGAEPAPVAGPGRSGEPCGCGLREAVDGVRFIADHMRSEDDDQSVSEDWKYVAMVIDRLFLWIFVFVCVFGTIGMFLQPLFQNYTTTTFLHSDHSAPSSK
- Assay summary: Automated TEVC recording of ACh-evoked currents in Xenopus oocytes expressing human α4β2 nAChR
- Cond: inhibition of ACh-evoked current, ACh 150 µM (EC50), −60 mV; 95% confidence interval in parentheses
pIC50: −log10 of the molar value.
Reported endpoint: pIC50

[[record]]
compound = "CC1=NCCC[C@]12CCCCC21OCCO1 [Spiroimine (+)-4 R]"
reported_endpoint = "pIC50"
test_result = 5.03

[[record]]
compound = "CC1=NCCCC12CCCCC21OCCO1 (racemic) [Racemic (±)-4]"
reported_endpoint = "pIC50"
test_result = 5.16

[[record]]
compound = "CC1=NCCC[C@@]12CCCCC21OCCO1 [Spiroimine (−)-4 S]"
reported_endpoint = "pIC50"
test_result = 5.85


---

Overview of reported pKd across a group of molecules:
- Experimental target: L-AChBP (Lymnaea stagnalis)
- Construct: made in house; host or cells: stably transfected HEK293S-GnTI- cells
- Assay summary: Stopped-flow Trp fluorescence kinetic and equilibrium binding to purified L-AChBP
- Cond: L-AChBP; read-out: Kd values (range of magnitude)
pKd: −log10 of the molar value.
Reported endpoint: pKd

[[record]]
molecule = "CC1=NCCC[C@@]12CCCCC21OCCO1 [Spiroimine (−)-4 S]"
test_result = "~7.00"

[[record]]
molecule = "CC1=NCCC[C@]12CCCCC21OCCO1 [Spiroimine (+)-4 R]"
test_result = "~5.00"


---

- Experimental target: L-AChBP (Lymnaea stagnalis)
- Construct: made in house; host or cells: stably transfected HEK293S-GnTI- cells
- Assay summary: Stopped-flow Trp fluorescence kinetic and equilibrium binding to purified L-AChBP
- Cond: L-AChBP, stopped-flow on pre-equilibrated complexes, biphasic curve; read-out: Kd/SFeq, second constant from a biphasic curve
Reported endpoint: Kd (µM)

[[record]]
compound = "CC1=NCCCC12CCCCC21OCCO1 (racemic) [Racemic (±)-4]"
experimental_target = "L-AChBP (Lymnaea stagnalis)"
reported_endpoint = "Kd"
test_result = 15


Values were extracted from paper PMC11050823.
